- MEASURED_ON: E3 (CUL4) (Homo sapiens (Human), UniProt Q13619)
- Sequence (Q13619 whole entry): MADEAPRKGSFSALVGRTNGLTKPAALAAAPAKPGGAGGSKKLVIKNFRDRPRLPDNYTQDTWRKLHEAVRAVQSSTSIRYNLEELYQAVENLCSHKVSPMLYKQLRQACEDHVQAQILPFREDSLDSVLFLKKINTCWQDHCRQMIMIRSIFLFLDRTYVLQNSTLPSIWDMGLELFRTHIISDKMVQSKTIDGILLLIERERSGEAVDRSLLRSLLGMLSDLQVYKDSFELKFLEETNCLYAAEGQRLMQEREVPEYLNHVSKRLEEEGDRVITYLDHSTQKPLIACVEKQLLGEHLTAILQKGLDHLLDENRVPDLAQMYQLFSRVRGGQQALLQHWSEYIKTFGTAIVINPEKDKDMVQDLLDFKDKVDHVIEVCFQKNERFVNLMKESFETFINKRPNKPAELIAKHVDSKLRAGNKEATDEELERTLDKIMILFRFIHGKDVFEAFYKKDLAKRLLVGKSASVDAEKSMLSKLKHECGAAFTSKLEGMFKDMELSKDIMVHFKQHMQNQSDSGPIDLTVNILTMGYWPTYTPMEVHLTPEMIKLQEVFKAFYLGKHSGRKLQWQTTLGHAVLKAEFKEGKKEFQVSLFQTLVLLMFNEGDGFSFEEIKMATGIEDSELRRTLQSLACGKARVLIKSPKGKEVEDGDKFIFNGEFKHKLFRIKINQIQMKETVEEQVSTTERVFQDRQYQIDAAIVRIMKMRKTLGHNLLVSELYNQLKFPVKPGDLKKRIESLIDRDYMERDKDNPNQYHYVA
- Sequence (P62877 whole entry partner): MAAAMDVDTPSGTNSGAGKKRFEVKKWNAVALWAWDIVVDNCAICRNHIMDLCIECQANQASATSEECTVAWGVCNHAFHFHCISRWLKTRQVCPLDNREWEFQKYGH
- EXPERIMENTAL_DETAILS: E3 (CUL4) inhibition (Table 1)
# Lookup of reported EC50 keyed by entry

Worked examples, 4 compounds total:
Cc1cccc(-n2cc(-c3c(C(F)(F)F)oc4c(O)c(O)ccc4c3=O)cn2)c1; ~14 µM
O=c1c(-c2cnn(Cc3cc(F)ccc3C(F)(F)F)c2)c(C(F)(F)F)oc2c(O)c(O)ccc12; ~10 µM
O=c1c(-c2cnn(Cc3ccc(Cl)cc3)c2)c(C(F)(F)F)oc2c(O)c(O)ccc12; > 10 µM
O=c1c(-c2cnn(-c3cccc(F)c3)c2)c(C(F)(F)F)oc2c(O)c(O)ccc12; ~14 µM

So for O=c1c(-c2cnn(Cc3cc(C(F)(F)F)ccc3F)c2)c(C(F)(F)F)oc2c(O)c(O)ccc12 , the logged EC50 turned out to be > 10 µM

So for O=c1c(-c2cnn(-c3ccc(C(F)(F)F)cc3)c2)c(C(F)(F)F)oc2c(O)c(O)ccc12 , the logged EC50 turned out to be > 14 µM

So for CCn1cc(-c2c(C(F)(F)F)oc3c(OC)c(OC)ccc3c2=O)cn1 , the logged EC50 turned out to be > 10 µM

So for COc1ccc2c(=O)c(-c3cnn(Cc4ccc(F)cc4)c3)c(C(F)(F)F)oc2c1OC , the logged EC50 turned out to be > 10 µM

----------
- MEASURED_ON: ROC1-CUL4A CTD (Homo sapiens (Human))
- Sequence (Q13619 400-759): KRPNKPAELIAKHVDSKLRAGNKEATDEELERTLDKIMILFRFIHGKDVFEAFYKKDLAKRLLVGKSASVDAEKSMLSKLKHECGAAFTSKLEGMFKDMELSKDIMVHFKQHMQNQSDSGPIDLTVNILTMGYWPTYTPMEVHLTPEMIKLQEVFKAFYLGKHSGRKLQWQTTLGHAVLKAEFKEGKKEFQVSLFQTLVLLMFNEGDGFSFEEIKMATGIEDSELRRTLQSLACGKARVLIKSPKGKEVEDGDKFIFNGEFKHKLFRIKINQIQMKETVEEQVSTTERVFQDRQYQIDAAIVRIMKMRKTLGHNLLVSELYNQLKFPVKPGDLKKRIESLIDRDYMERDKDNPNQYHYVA
READOUT_LABEL: Kd (nM)
State the answer as a number, implicitly in nM.

So for O=c1c(-c2cnn(-c3ccccc3)c2)c(C(F)(F)F)oc2c(O)c(O)ccc12 , the logged Kd turned out to be 223

----------
- MEASURED_ON: E3 (CUL1) (Homo sapiens (Human))
- EXPERIMENTAL_DETAILS: E3 (CUL1) inhibition (Table 1)
READOUT_LABEL: EC50 (µM)

O=c1cc(C(F)(F)F)oc2c(O)c(O)ccc12; 4.9

(I) COc1ccc2c(=O)c(-c3cnn(Cc4cccc(C)c4)c3)c(C(F)(F)F)oc2c1OC
(II) O=c1c(-c2cnn(Cc3ccc(F)cc3)c2)c(C(F)(F)F)oc2c(O)c(O)ccc12
Prompt line: Please choose the item with the lower EC50 value from this pair: I and II Answer = label.
Response line: II
(II: 7.2 µM, I: 92 µM)

----------
- MEASURED_ON: ROC1-CUL1 CTD (Homo sapiens (Human))
- EXPERIMENTAL_DETAILS: Ligand binding by MST
- TEST_CONDITIONS: Table 5, MST; read-out: E3 binding Kd
READOUT_LABEL: Kd (µM)

Worked examples, 3 compounds total:
O=c1c(Oc2ccccc2)c(C(F)(F)F)oc2c(O)c(O)ccc12; 1.84
O=c1c(Oc2ccccc2)c(C(F)(F)F)oc2cc(O)ccc12; 57
Cc1oc2c(O)c(O)ccc2c(=O)c1Oc1ccccc1; 15

(a) O=c1c(Oc2ccccc2)c(C(F)(F)F)oc2c3c(ccc12)OCO3
(b) O=c1c(Oc2ccccc2)c(C(F)(F)F)oc2c3c(ccc12)OCCO3
Prompt line: Two entries are listed, a and b . Which one carries the higher Kd? Answer = label.
Response line: b
(b: 48 µM, a: 19 µM)

----------
- MEASURED_ON: E3 (CUL1) (Homo sapiens (Human), UniProt Q13616)
- Sequence (Q13616 whole entry): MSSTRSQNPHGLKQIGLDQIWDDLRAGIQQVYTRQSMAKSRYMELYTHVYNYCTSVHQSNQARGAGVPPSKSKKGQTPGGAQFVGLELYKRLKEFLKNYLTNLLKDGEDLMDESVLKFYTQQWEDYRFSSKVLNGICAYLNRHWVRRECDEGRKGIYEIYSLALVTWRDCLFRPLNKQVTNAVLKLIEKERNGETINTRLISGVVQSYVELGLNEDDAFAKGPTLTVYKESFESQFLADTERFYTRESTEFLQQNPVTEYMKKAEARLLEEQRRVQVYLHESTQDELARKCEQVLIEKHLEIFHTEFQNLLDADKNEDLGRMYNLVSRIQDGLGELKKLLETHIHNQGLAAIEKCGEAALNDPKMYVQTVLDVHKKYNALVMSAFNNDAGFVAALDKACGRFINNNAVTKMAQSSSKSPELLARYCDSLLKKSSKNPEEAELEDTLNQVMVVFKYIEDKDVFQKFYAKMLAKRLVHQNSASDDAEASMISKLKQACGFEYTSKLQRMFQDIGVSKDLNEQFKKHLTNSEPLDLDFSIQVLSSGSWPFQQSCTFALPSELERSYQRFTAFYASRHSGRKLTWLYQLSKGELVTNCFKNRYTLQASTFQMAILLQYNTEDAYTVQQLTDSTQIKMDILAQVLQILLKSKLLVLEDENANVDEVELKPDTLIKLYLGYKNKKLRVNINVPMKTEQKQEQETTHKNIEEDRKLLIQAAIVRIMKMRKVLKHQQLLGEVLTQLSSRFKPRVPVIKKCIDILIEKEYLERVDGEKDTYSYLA
- Sequence (P62877 whole entry partner): as the sequence (P62877 whole entry partner) above
- EXPERIMENTAL_DETAILS: E3 (CUL1) inhibition (Table 1)
- Type: biochemical
pEC50: −log10 of the molar value.
READOUT_LABEL: pEC50

Worked examples, 2 compounds total:
O=c1c(-c2cnn(-c3cccc(F)c3)c2)c(C(F)(F)F)oc2c(O)c(O)ccc12; 5.30
O=c1c(-c2cnn(-c3cccc(C(F)(F)F)c3)c2)c(C(F)(F)F)oc2c(O)c(O)ccc12; 5.10

(1) O=c1c(-c2cnn(Cc3ccccc3F)c2)c(C(F)(F)F)oc2c(O)c(O)ccc12
(2) O=c1c(-c2cnn(Cc3cc(C(F)(F)F)ccc3Cl)c2)c(C(F)(F)F)oc2c(O)c(O)ccc12
Prompt line: Two entries are listed, 1 and 2 . Which one carries the higher pEC50? Answer = label.
Response line: 2

----------
- EXPERIMENTAL_DETAILS: End-of-study PK in MV4-11 xenograft mice
- Type: in vivo
- TEST_CONDITIONS: mouse, tumor; mice dosed with #33-11; read-out: AUC in tumors
- Description: Tumor tissues were weighed at the end of study. At the endpoint, 100 μl blood and tumors from Group 3 (G3) and Group 4 (G4) were collected as shown in the Table 3, for further pharmacokinetics or biomarker analysis. Plasma were isolated from all blood samples.
READOUT_LABEL: AUC (µM·h)
State the answer as a number, implicitly in µM·h.

So for O=c1c(-c2cnn(-c3ccccc3)c2)c(C(F)(F)F)oc2c(O)c(O)ccc12 , the logged AUC turned out to be 0.75

----------
- EXPERIMENTAL_DETAILS: End-of-study PK in MV4-11 xenograft mice
- Format: in vivo
- TEST_CONDITIONS: BALB/c nude, mouse, tumor, ip; G4, 50 mg/kg QD; read-out: AUC over 24 hours in tumor
READOUT_LABEL: AUC

So for O=c1c(-c2cnn(-c3ccc(Cl)cc3)c2)c(C(F)(F)F)oc2c(O)c(O)ccc12 , the logged AUC turned out to be ~4.7 µM·h

----------
- Test system: cancer cells
- EXPERIMENTAL_DETAILS: Apoptosis, Annexin V flow cytometry
- Format: cell-based
- TEST_CONDITIONS: Table 6
pEC50: −log10 of the molar value.
READOUT_LABEL: pEC50

Worked examples, 3 compounds total:
CCCCn1cc(-c2c(C(F)(F)F)oc3c(O)c(O)ccc3c2=O)cn1; 4.55
O=c1c(-c2cnn(-c3ccccc3)c2)c(C(F)(F)F)oc2c(O)c(O)ccc12; 4.89
O=c1c(-c2cnn(-c3ccc(Cl)cc3)c2)c(C(F)(F)F)oc2c(O)c(O)ccc12; 5.10

(I) CCCn1cc(-c2c(C(F)(F)F)oc3c(O)c(O)ccc3c2=O)cn1
(II) CCn1cc(-c2c(C(F)(F)F)oc3c(O)c(O)ccc3c2=O)cn1
Prompt line: Please choose the item with the lower pEC50 value from this pair: I and II Answer = label.
Response line: II
(II: 4.18, I: 4.42)

----------
- MEASURED_ON: UniProtKB Q13616
- EXPERIMENTAL_DETAILS: E3 (CUL1) inhibition (Table 1)
pEC50: −log10 of the molar value.
READOUT_LABEL: pEC50

Worked examples, 3 molecules total:
N#Cc1ccc(-n2cc(-c3c(C(F)(F)F)oc4c(O)c(O)ccc4c3=O)cn2)cc1; 5.05
CCCn1cc(-c2c(C(F)(F)F)oc3c(O)c(O)ccc3c2=O)cn1; 5.40
O=c1c(-c2cnn(Cc3ccc(Cl)cc3)c2)c(C(F)(F)F)oc2c(O)c(O)ccc12; 5.12

(1) NC(=O)c1ccccc1-n1cc(-c2c(C(F)(F)F)oc3c(O)c(O)ccc3c2=O)cn1
(2) Cc1cccc(Cn2cc(-c3c(C(F)(F)F)oc4c(O)c(O)ccc4c3=O)cn2)c1
(3) COc1ccc2c(=O)c(-c3cnn(Cc4cccc(C(F)(F)F)c4Cl)c3)c(C(F)(F)F)oc2c1OC
Prompt line: Arrange the 3 molecules from largest to smallest pEC50. Labels, requested order.
Response line: 2, 1, 3

(P) O=c1c(-c2cnn(-c3ccc(F)cc3)c2)c(C(F)(F)F)oc2c(O)c(O)ccc12
(Q) CCCCn1cc(-c2c(C(F)(F)F)oc3c(O)c(O)ccc3c2=O)cn1
Prompt line: Please choose the item with the lower pEC50 value from this pair: P and Q Answer = label.
Response line: P

----------
- MEASURED_ON: ROC1-CUL4A (full length) (Homo sapiens (Human), UniProt Q13619)
- EXPERIMENTAL_DETAILS: Ligand binding by MST
- TEST_CONDITIONS: read-out: E3 binding ROC1-CUL4A Kd
pKd: −log10 of the molar value.
READOUT_LABEL: pKd

CCCCn1cc(-c2c(C(F)(F)F)oc3c(O)c(O)ccc3c2=O)cn1; 4.42
CCCn1cc(-c2c(C(F)(F)F)oc3c(O)c(O)ccc3c2=O)cn1; 4.58

----------
- MEASURED_ON: ROC1-CUL1 CTD (Homo sapiens (Human), UniProt Q13616)
- EXPERIMENTAL_DETAILS: Ligand binding by MST
- TEST_CONDITIONS: Table 9; read-out: E3 Binding Kd (MST with CUL1 CTD)
pKd: −log10 of the molar value.
READOUT_LABEL: pKd

O=c1c(Oc2ccccc2Br)c(C(F)(F)F)oc2c(O)c(O)ccc12; 5.71

(1) O=c1c(Oc2ccccc2)c(C(F)(F)F)oc2c(O)c(O)c(Br)cc12 [drawing 256]
(2) O=c1c(Oc2ccc(Br)cc2)c(C(F)(F)F)oc2c(O)c(O)c(Br)cc12
Prompt line: Please choose the item with the lower pKd value from this pair: 1 and 2 Answer = label.
Response line: 1
